Biological target: Muscarinic acetylcholine receptor M2 (Homo sapiens)
Test: human M2 receptor positive allosteric modulation, SAR follow-up, selectivity assay for M4 PAM optimization, CHO cells, Gqi5 chimera, calcium mobilization (AID 623925)
Conditions: CHO hM2/Gqi5 calcium mobilization, ACh EC20 potentiation
Quantity name: EC50

>>> result("Cc1nc2sc(C(=O)NC3CC3)c(N)c2c(C)c1Cl")
"548 nM"

* * *

Target: Muscarinic acetylcholine receptor M2 (Homo sapiens) (UniProt P08172)
Sequence (P08172 whole entry, looked up): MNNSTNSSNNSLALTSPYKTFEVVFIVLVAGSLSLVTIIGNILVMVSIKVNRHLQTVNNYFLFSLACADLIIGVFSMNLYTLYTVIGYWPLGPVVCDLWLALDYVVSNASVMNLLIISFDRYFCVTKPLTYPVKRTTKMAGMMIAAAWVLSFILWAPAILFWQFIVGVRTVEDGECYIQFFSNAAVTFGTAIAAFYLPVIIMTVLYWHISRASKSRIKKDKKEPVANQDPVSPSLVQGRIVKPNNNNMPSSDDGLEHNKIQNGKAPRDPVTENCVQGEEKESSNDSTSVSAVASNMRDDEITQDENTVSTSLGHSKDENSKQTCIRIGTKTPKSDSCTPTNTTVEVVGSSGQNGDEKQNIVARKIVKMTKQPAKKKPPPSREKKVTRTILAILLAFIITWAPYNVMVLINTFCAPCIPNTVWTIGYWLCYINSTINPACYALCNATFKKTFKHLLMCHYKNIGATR
Assay: human M2 receptor positive allosteric modulation, SAR follow-up, selectivity assay for M4 PAM optimization, CHO cells, Gqi5 chimera, calcium mobilization (AID 623925)
Details: CHO hM2/Gqi5 calcium mobilization, ACh EC20 potentiation; at 30 µM (top of the series)
The source made the active and inactive calls.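 The calls were made as follows: active = compounds whose calcium response changes with concentration, giving a dose-dependent curve as judged by the depositor; inactive = the rest, with no dose-dependent response.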
Quantity name: % ACh max response

>>> result("Cc1nc2sc(C(=O)NCc3cccc(F)c3F)c(N)c2c(C)c1Cl")
"inactive"
>>> result("COc1ccc(C)c2sc(NC(=O)c3ccncc3)nc12")
"inactive"
>>> result("Cc1nc2sc(C(=O)NCc3ccncn3)c(N)c2c(C)c1Cl")
"inactive"
>>> result("Cc1nc2sc(C(=O)NCc3nccs3)c(N)c2c(C)c1Cl")
"inactive"
>>> result("Cc1nc2sc(C(=O)NCCc3ccncc3)c(N)c2c(C)c1Cl")
"inactive"

Reference source: PubChem BioAssay AID623925
